Measured values drawn from patent US8440708B2 for this set.

- System name: human P2X2/3 receptor (Homo sapiens, UniProt P56373+Q9UBL9)
- Construct: expressed in transfected cells; host or cells: CHO-K1
- Sequence (Q9UBL9 1-471): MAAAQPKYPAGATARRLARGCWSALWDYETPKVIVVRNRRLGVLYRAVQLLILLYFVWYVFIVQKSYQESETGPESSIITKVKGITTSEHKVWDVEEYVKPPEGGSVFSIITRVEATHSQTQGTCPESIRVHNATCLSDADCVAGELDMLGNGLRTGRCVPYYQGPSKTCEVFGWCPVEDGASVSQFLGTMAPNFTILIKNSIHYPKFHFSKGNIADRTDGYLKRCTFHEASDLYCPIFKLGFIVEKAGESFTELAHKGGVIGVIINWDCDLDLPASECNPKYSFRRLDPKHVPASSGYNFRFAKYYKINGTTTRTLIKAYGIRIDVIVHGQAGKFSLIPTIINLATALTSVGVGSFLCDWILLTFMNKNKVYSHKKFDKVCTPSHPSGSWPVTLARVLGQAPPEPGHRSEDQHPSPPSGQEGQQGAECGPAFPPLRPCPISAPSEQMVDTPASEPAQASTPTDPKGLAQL
- Sequence (P56373 1-397): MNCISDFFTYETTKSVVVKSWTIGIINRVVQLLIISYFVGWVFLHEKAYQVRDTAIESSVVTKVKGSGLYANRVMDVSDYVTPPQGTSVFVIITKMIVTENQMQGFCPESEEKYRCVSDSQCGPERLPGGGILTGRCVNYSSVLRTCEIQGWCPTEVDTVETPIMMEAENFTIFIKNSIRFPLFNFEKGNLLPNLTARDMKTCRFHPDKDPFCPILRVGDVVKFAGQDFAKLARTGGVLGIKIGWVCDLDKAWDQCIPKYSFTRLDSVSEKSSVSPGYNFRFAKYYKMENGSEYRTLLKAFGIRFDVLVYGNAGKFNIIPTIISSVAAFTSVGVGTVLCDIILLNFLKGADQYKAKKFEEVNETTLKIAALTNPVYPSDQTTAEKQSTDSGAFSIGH
- Measurement description: P2X3/P2X2/3 FLIPR (Fluorometric Imaging Plate Reader) Assay, P2X2/3
- Format: cell-based
- Assay conditions: CHO-K1 cells transfected with human P2X2/3; agonist α,β-meATP 5 μM; Table 1; read-out: P2X2/3 pKi (converted)
Measured property: Ki (nM)

[[record]]
compound = "Cc1ccc(-c2cc(C(=O)NC(C)CO)cc(-n3ncnc3C(C)C)c2)cc1 (stereo not shown) [Compound 16]"
measured_property = "Ki"
unit_label = "nM"
data_value = 295

[[record]]
compound = "CCCc1ncnn1-c1cc(C(=O)NC2CC2)cc(-c2ccc(Cl)cn2)c1 [Compound 112]"
measured_property = "Ki"
unit_label = "nM"
data_value = 1860

[[record]]
compound = "CCc1ncnn1-c1cc(C(=O)NC(C)c2cnccn2)cc(-c2ccc(Cl)cn2)c1 (stereo not shown) [Compound 106]"
measured_property = "Ki"
unit_label = "nM"
data_value = 759

[[record]]
compound = "Cc1ccc(-c2cc(-n3ncnc3C(F)(F)F)cc(C(=O)NCc3cnc(C)nc3)c2F)nc1 [Compound 178]"
measured_property = "Ki"
unit_label = "nM"
data_value = 51.3


----------
- System name: human P2X2/3 receptor (Homo sapiens, UniProt P56373+Q9UBL9)
- Construct: expressed in transfected cells; host or cells: CHO-K1
- Measurement description: P2X3/P2X2/3 FLIPR (Fluorometric Imaging Plate Reader) Assay, P2X2/3
- Format: cell-based
- Assay conditions: CHO-K1 cells transfected with human P2X2/3; agonist α,β-meATP 5 μM; Table 1; read-out: P2X2/3 pKi (converted)
Each entry below lists one item and its recorded Ki value.
Measured property: Ki (µM)

[[record]]
molecule = "Cc1ccc(-c2cc(C(=O)NCc3cnc(C)cn3)cc(-n3ncnc3C3CCC3)c2)nc1"
data_value = 0.0331

[[record]]
molecule = "Cc1ccc(-c2cc(C(=O)N[C@@H](C)CO)cc(-n3ncnc3C(C)(C)C)c2)nc1"
data_value = 10

[[record]]
molecule = "Cc1ccc(-c2cc(C(=O)NC(C)c3cnccn3)cc(-n3nncc3C(C)C)c2)c(F)c1 (stereo not shown)"
data_value = 0.0724

[[record]]
molecule = "Cc1ccc(-c2cc(C(=O)NC3CC3)cc(-n3ncnc3C(C)N(C)C)c2)nc1 (stereo not shown)"
data_value = 1.7

[[record]]
molecule = "CC(NC(=O)c1cc(-c2ccc(Cl)cc2)cc(-n2cncn2)c1)c1cnccn1 (stereo not shown)"
data_value = 2.95

[[record]]
molecule = "CCc1ncnn1-c1cc(C(=O)NCc2cnc(C)cn2)cc(-c2ccc(Cl)cn2)c1"
data_value = 1.15

[[record]]
molecule = "Cc1ccc(-c2cc(C(=O)NCc3cnc(C)cn3)cc(-n3ncnc3C3CN(C)C3)c2)nc1"
data_value = 10

[[record]]
molecule = "Cc1ccc(-c2cc(C(=O)NC(C)CO)cc(-n3nncc3C(C)C)c2)c(F)c1 (stereo not shown)"
data_value = 0.355

[[record]]
molecule = "Cc1ccc(-c2cc(C(=O)NC(C)c3cnccn3)cc(-n3cnnc3C(C)C)c2)cc1 (stereo not shown)"
data_value = 1.29

[[record]]
molecule = "C[C@@H](CO)NC(=O)c1cc(-c2ccc(Cl)cn2)cc(-n2ncnc2C(F)(F)F)c1"
data_value = 3.89

[[record]]
molecule = "Cc1ccc(-c2cc(C(=O)NCc3cnc(C)cn3)cc(-c3ncnn3C(C)C)c2)cc1"
data_value = 0.398

[[record]]
molecule = "COC[C@@H](C)NC(=O)c1cc(-c2ccc(C)cc2)cc(-n2nncc2C(C)C)c1"
data_value = 0.324

[[record]]
molecule = "Cc1ccc(-c2cc(C(=O)N[C@@H](C)CO)cc(-n3cnnc3C(C)C)c2)cc1"
data_value = 10

[[record]]
molecule = "Cc1ccc(-c2cc(C(=O)N[C@@H](C)CO)cc(-n3nncc3C(C)C)c2)c(F)c1"
data_value = 0.324

[[record]]
molecule = "CCn1cc(-c2cc(C(=O)N[C@@H](C)CO)cc(-c3ccc(C)cc3)c2)nn1"
data_value = 10

[[record]]
molecule = "Cc1ccc(-c2cc(C(=O)NCc3cnc(C)cn3)cc(-n3ncnc3C(F)(F)F)c2)cc1"
data_value = 0.049

